// values below are reported self-splicing fitness (ln)
experiment: self-splicing fitness, log relative to wild type (ln ratio); higher = more splicing; Tetrahymena group I intron in knt gene, E. coli kanamycin selection, DiMSum; sequences stand for … in CUCUCU…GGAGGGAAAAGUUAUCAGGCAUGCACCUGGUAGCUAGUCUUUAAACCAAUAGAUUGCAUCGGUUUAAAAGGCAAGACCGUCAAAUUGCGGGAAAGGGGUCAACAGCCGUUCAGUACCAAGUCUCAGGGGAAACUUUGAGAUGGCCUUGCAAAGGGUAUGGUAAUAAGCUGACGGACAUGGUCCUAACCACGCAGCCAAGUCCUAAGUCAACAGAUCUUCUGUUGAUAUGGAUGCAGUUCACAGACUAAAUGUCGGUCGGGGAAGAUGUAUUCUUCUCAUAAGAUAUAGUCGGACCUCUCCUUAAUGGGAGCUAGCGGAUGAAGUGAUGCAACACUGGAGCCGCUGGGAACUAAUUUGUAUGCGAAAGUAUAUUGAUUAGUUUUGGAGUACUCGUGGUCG; conditions: 37 °C;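 note: selection with 25 µg/mL kanamycin versus none on LB agar overnight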
Answer using only a numeral; do not append any unit.

Known self-splicing fitness (ln) results, listed for orientation:
residue_string=CCAAAGCAAUAUUACGGGCG property="self-splicing fitness (ln)" reported=-0.301
residue_string=GGAUAGCAAUAUUACGCUUA property="self-splicing fitness (ln)" reported=-0.532

Query block: Which measured self-splicing fitness (ln) value corresponds to UCUUAGCAAUAUUACGGGAU ?
Result block: -2.65

Query block: For GGAGAGCAAUAUUACGGCUC then?
Result block: -2.82

Query block: For UUGCAGCAAUAUUACGAUGA then?
Result block: 0.367

Query block: For UACAAGCAAUAUUACGGUCC then?
Result block: -1.34

Query block: For ACUCAGCAAUAUUACGGAGG then?
Result block: -1.35

Query block: For UUUAAGCAAUAUUACGUCCA then?
Result block: -0.324

Query block: For AUGAAGCAAUAUUACGCUUA then?
Result block: -0.151

Query block: For UUCCAGCAAUAUUACGCAAG then?
Result block: -0.644

Query block: For GUUUAGCAAUAUUACGUCCA then?
Result block: -1.18

---

assay: self-splicing fitness, log relative to wild type (ln ratio); higher = more splicing; Tetrahymena group I intron in knt gene, E. coli kanamycin selection, DiMSum; sequences stand for … in CUCUCU…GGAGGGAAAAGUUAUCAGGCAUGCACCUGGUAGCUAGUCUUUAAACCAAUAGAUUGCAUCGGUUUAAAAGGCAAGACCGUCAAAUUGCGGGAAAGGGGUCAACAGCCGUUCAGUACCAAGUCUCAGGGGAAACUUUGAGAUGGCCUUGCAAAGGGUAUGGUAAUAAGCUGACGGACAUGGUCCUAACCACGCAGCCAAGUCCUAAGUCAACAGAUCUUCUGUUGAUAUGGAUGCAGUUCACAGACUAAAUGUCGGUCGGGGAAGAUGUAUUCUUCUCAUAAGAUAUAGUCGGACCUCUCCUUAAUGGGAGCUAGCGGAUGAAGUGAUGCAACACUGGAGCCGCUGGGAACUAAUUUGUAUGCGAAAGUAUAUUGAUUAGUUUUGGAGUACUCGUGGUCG; conditions: 30 °C
// values below are reported self-splicing fitness (ln)
Answer using only a numeral; do not append any unit.

Known self-splicing fitness (ln) results, listed for orientation:
residue_string=AUUUAGCAAUAUUACGUCUG reported=-1.73
residue_string=UGUCAGCAAUAUUACGGGCU reported=-1.7
residue_string=AUACAGCAAUAUUACGUUCG reported=-1.69
residue_string=AAACAGCAAUAUUACGUAUA reported=-3
residue_string=UGAAAGCAAUAUUACGACUU reported=-0.765

Query block: Which measured self-splicing fitness (ln) value corresponds to AUCCAGCAAUAUUACGGCGG ?
Result block: -1.04

Query block: For GAUGAGCAAUAUUACGGCCU then?
Result block: -2.54

Query block: For AAUAAGCAAUAUUACGUCUG then?
Result block: -1.59
